Target: hERG (Homo sapiens)
Construct: purchased Invitrogen PV5365
Test: hERG inhibition test (Predictor hERG Fluorescence Polarization assay kit)
Format: binding
Conditions: probe kit Tracer (fluorescent hERG ligand), hERG % inhibition at 10 uM, relative to E-4031 and solvent control
We begin with a simple list: items and their reported inhibition at 2.5 h, 10 µM.
Please reply with the bare figure in % and do not write the unit itself.

Known results for molecules:
molecule	target.entity	inhibition at 2.5 h, 10 µM [%]
O=C(O)c1ccc2nc(Cc3ccc(-c4cccc(OCc5ccc(C(F)(F)F)cc5)n4)c(F)c3)n(C[C@@H]3CCO3)c2c1 [Example 121]	hERG (Homo sapiens)	-10.7
Cc1cccc(COc2cccc(-c3ccc(Cc4nc5ccc(C(=O)O)cc5n4CC4CCCO4)cc3F)n2)c1 (stereo not drawn) [Example 90]	hERG (Homo sapiens)	20.2

## Input For the molecule N#Cc1ccc(COc2cccc(-c3ccc(Cc4nc5ccc(C(=O)O)cc5n4C[C@@H]4CCCO4)cc3F)n2)c(F)c1 [Example 67] , give its measured inhibition at 2.5 h, 10 µM value.
## Output 0.85

## Input Please indicate inhibition at 2.5 h, 10 µM recorded for O=C(O)c1ccc2nc(Cc3cc(F)c(-c4cccc(OCc5ccc(Cl)cc5F)n4)cc3F)n(C[C@@H]3CCO3)c2c1 [Example 86]
## Output 8.93

## Input Assign inhibition at 2.5 h, 10 µM to the following record: COCCn1c(Cc2ccc(-c3cccc(OCc4ccc(C#N)cc4F)n3)c(F)c2)nc2ccc(C(=O)O)cc21 [Example 38]
## Output 9.5

## Input Specify inhibition at 2.5 h, 10 µM for Cc1cc(-c2cccc(OCc3ccc(C#N)cc3F)n2)ccc1Cc1nc2ccc(C(=O)O)cc2n1C[C@@H]1CCO1 [Example 133] and stop.
## Output 41

====

Molecular target: human GLP-1 receptor (Homo sapiens, UniProt P43220)
Construct: host or cells: CHO-K1
Sequence (P43220 24-463): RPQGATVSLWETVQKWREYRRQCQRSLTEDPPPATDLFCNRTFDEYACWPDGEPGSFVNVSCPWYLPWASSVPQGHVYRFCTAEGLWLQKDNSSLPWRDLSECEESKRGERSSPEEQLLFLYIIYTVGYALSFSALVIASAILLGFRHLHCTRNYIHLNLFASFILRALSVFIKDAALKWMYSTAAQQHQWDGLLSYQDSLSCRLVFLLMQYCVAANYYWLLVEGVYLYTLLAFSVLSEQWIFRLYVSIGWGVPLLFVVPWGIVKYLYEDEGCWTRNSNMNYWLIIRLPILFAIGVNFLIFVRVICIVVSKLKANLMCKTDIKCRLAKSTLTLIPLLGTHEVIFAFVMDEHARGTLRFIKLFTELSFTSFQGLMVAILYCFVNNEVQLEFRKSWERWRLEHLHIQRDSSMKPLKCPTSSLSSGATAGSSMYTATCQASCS
Experiment: cAMP activity test (cAMP dynamic HTRF kit) in CHO-K1/GLP-1 receptor-expressing cells
Format: cell-based
Settings: cAMP activity, CHO-K1/GLP-1 receptor-expressing cells; read-out: EC50
property.measured: pEC50
Please treat pEC50 as minus the base-10 logarithm of the molar concentration.

Solved cases below.
molecule	pEC50
O=C(O)c1ccc2nc(Cc3ccc(-c4cccc(OCc5ccc(Cl)cc5F)n4)cc3F)n(C[C@@H]3CCCO3)c2c1	8.24
N#Cc1ccc(COc2cccc(-c3ccn(Cc4nc5ccc(C(=O)O)cc5n4CC4CCCO4)c(=O)c3)c2)c(F)c1 (centres unmarked)	6.42
Cc1cc(Cc2nc3ccc(C(=O)O)cc3n2Cc2ccco2)ccc1-c1cccc(OCc2ccc(C#N)cc2F)n1	6.34
COCCn1c(Cc2ccc(-c3cccc(OCc4ccc(Cl)cc4F)n3)cc2)nc2ccc(C(=O)O)cc21	7.20
N#Cc1ccc(COc2cccc(-c3ccc(Cc4nc5ccc(C(=O)O)cc5n4C[C@@H]4CCO4)cc3F)n2)c(F)c1	8.24
O=C(O)c1ccc2nc(Cc3ccc(-c4cccc(OCc5ccc(C(F)(F)F)cc5)n4)cc3F)n(CC3CCCO3)c2c1 (centres unmarked)	7.55

## Input Give the value of pEC50 reported for the following: O=C(O)c1ccc2nc(Cc3ccc(-c4ccc(F)c(OCc5ccc(Cl)cc5F)c4)c(F)c3)n(CC3CCCO3)c2c1 (centres unmarked)
## Output 7.11

## Input Return value of pEC50 for input O=C(O)c1ccc2nc(Cc3ccc(-c4cccc(OCc5ccc(Cl)cc5)n4)cc3F)n(CC3CCCO3)c2c1 (centres unmarked) , no commentary.
## Output 7.64

## Input Note down pEC50 recorded for `N#Cc1ccc(COc2cccc(-c3ccn(Cc4nc5ccc(C(=O)O)cc5n4C[C@@H]4CCO4)c(=O)c3)n2)c(F)c1`
## Output 7.70

====

# Lookup of reported inhibition at 2.5 h, 10 µM keyed by entry
Molecular target: hERG (Homo sapiens)
Construct: purchased Invitrogen PV5365
Experiment: hERG inhibition test (Predictor hERG Fluorescence Polarization assay kit)
Assay type: binding
Details: probe kit Tracer (fluorescent hERG ligand), hERG % inhibition at 10 uM, relative to E-4031 and solvent control
Note: unit % is implicit; provide only the numeric part.

// below: answered compounds
compound	result.units	inhibition at 2.5 h, 10 µM
COCCn1c(Cc2ccc(-c3cccc(OCc4ccc(C#N)cc4F)n3)cc2)nc2ccc(C(=O)O)cc21	%	6.19
N#Cc1ccc(COc2cccc(-c3ccc(Cc4nc5ccc(C(=O)O)cc5n4CCF)c(F)c3)c2)c(F)c1	%	6.42
O=C(O)c1ccc2nc(Cc3ccc(-c4cccc(OCc5ccc(Cl)cc5F)n4)cc3F)n(C[C@H]3CCCO3)c2c1	%	-4.69
O=C(O)c1ccc2nc(Cc3ccc(-c4cccc(OCc5c(F)cccc5Cl)n4)c(F)c3)n(CC3CCCO3)c2c1 (centres unmarked)	%	-2.37
O=C(O)c1ccc2nc(Cc3ccc(-c4cccc(OCc5ccc(Cl)cc5F)n4)c(F)c3)n(Cc3cccs3)c2c1	%	4.72
O=C(O)c1ccc2nc(Cc3cc(F)c(-c4cccc(OCc5ccc(Cl)cc5F)n4)cc3F)n(CC3CCCO3)c2c1 (centres unmarked)	%	-6.14
O=C(O)c1ccc2nc(Cc3ccc(-c4cccc(OCc5ccc(Cl)cc5F)n4)cc3F)n(C[C@@H]3CCCO3)c2c1	%	-21
Cc1ccc(COc2cccc(-c3ccc(Cc4nc5ccc(C(=O)O)cc5n4CC4CCCO4)c(F)c3)n2)cc1 (centres unmarked)	%	-0.5
N#Cc1ccc(COc2cccc(-c3ccc(Cc4nc5ccc(C(=O)O)cc5n4C[C@H]4CCCO4)c(F)c3)c2)c(F)c1	%	1.04
O=C(O)c1ccc2nc(Cn3ccc(-c4cccc(OCc5ccc(Cl)cc5F)n4)cc3=O)n(C[C@@H]3CCCO3)c2c1	%	4

## Input Specify inhibition at 2.5 h, 10 µM for O=C(O)c1ccc2nc(Cc3ccc(-c4cccc(OCc5ccc(Cl)cc5F)n4)c(F)c3F)n(CC3CCCO3)c2c1 (centres unmarked) , system hERG (Homo sapiens).
## Output -6.72

## Input Please report inhibition at 2.5 h, 10 µM with hERG (Homo sapiens) for item `O=C(O)c1ccc2nc(Cc3ccc(-c4cccc(OCc5ccc(Cl)cc5F)c4)cc3F)n(Cc3cnco3)c2c1` .
## Output -11.7

## Input Fetch value of inhibition at 2.5 h, 10 µM on hERG (Homo sapiens) for `N#Cc1ccc(COc2cccc(-c3ccc(Cc4nc5ccc(C(=O)O)cc5n4C[C@@H]4CCCO4)c(F)c3)n2)c(F)c1` .
## Output -7.97

## Input Provide inhibition at 2.5 h, 10 µM, tested on hERG (Homo sapiens), for COc1cc(-c2cccc(OCc3ccc(Cl)cc3F)n2)ccc1Cc1nc2ccc(C(=O)O)cc2n1CC1CCCO1 (centres unmarked) .
## Output -19.6

## Input GET inhibition at 2.5 h, 10 µM | system: hERG (Homo sapiens) | item: `O=C(O)c1ccc2nc(Cc3ccc(-c4cccc(OCc5cccnc5)n4)c(F)c3)n(C[C@@H]3CCO3)c2c1`
## Output -6.27

## Input Fill: inhibition at 2.5 h, 10 µM (hERG (Homo sapiens)) for this compound `COCCn1c(Cc2ccc(-c3cccc(OCc4ccc(Cl)cc4F)c3)c(F)c2)nc2ccc(C(=O)O)cc21`
## Output -12.8

## Input # return inhibition at 2.5 h, 10 µM for `COCCn1c(Cc2c(F)cc(-c3cccc(OCc4ccc(Cl)cc4F)c3)cc2F)nc2ccc(C(=O)O)cc21` , test system: hERG (Homo sapiens)
## Output 14.3

## Input Report measured inhibition at 2.5 h, 10 µM on hERG (Homo sapiens); entry: `COCCn1c(Cc2ccc(-c3cccc(OCc4ccc(Cl)cc4F)n3)cc2[N+](=O)[O-])nc2ccc(C(=O)O)cc21`
## Output 2.74

## Input State recorded inhibition at 2.5 h, 10 µM with hERG (Homo sapiens), entry `O=C(O)c1ccc2nc(Cc3ccc(-c4ccc(F)c(OCc5ccc(Cl)cc5F)n4)c(F)c3)n(C[C@@H]3CCO3)c2c1` , no comment.
## Output 12.5

## Input # return inhibition at 2.5 h, 10 µM of `O=C(O)c1ccc2nc(Cc3ccc(-c4cccc(OCc5ccc(Cl)cc5F)n4)c(F)c3)n(C[C@@H]3CCCO3)c2c1` (system: hERG (Homo sapiens))
## Output -5.42

====

Molecular target: hERG (Homo sapiens, UniProt Q12809)
Construct: purchased Invitrogen PV5365
Sequence (Q12809 whole entry): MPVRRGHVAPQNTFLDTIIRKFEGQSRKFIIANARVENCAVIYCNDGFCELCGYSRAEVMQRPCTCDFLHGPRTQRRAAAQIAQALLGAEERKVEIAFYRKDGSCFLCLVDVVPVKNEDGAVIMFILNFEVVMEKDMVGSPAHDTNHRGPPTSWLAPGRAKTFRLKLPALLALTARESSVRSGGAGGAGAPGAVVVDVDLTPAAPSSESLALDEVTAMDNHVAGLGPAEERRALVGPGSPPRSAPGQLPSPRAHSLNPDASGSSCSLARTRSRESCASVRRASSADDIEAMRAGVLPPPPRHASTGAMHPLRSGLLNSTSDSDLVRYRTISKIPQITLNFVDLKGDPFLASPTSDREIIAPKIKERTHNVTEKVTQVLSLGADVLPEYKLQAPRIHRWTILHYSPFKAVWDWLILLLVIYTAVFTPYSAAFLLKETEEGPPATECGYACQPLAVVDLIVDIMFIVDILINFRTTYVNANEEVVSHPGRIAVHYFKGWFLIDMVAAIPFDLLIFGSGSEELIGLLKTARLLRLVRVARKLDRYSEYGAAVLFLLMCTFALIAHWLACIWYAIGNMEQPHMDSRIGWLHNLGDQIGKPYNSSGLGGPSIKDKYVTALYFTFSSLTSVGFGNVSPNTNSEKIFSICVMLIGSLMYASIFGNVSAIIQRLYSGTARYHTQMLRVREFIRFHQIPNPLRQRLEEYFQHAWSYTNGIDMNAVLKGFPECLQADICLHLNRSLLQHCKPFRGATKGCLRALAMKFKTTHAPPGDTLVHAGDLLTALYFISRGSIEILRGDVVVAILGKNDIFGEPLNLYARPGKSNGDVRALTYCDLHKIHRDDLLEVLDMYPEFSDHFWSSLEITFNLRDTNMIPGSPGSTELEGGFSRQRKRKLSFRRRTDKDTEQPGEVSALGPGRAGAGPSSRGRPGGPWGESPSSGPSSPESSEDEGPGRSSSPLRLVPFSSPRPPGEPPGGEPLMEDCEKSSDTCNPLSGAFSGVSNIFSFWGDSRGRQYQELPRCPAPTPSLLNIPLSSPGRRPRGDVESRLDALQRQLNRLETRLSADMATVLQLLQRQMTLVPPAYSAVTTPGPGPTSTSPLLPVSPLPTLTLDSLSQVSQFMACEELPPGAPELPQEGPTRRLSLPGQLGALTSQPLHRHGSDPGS
Assay: hERG inhibition test (Predictor hERG Fluorescence Polarization assay kit)
Assay type: binding
Conditions: probe kit Tracer (fluorescent hERG ligand), hERG % inhibition at 10 uM, relative to E-4031 and solvent control
inhibition at 2.5 h, 10 µM for assorted compounds
Answer with a number only, understood to be in %.

Take a look at these entries with their results.
compound	property.measured	value.observed
O=C(O)c1ccc2nc(Cc3ccc(-c4cccc(OCc5ccc(Cl)cc5F)n4)cc3)n(Cc3cccnc3)c2c1	inhibition at 2.5 h, 10 µM	1.26
O=C(O)c1ccc2nc(Cc3ccc(-c4cccc(OCc5ccc(Cl)cc5)n4)cc3F)n(CC3CCCO3)c2c1 (stereo not shown)	inhibition at 2.5 h, 10 µM	-7.98
N#Cc1ccc(COc2cccc(-c3ccc(Cc4nc5ccc(C(=O)O)cc5n4CC4CCCO4)cc3F)c2)c(F)c1 (stereo not shown)	inhibition at 2.5 h, 10 µM	0.48

## Input Tell me inhibition at 2.5 h, 10 µM reported for O=C(O)c1ccc2nc(Cc3ccc(-c4cccc(OCc5ccc(F)c(F)c5)n4)cc3F)n(CC3CCCO3)c2c1 (stereo not shown)
## Output -12.9

## Input For the compound `N#Cc1ccc(COc2cccc(-c3ccn(Cc4nc5ccc(C(=O)O)cc5n4C[C@@H]4CCCO4)c(=O)c3)n2)c(F)c1` , give its reported inhibition at 2.5 h, 10 µM.
## Output 6.49

## Input Give the measured inhibition at 2.5 h, 10 µM for N#Cc1ccc(COc2cccc(-c3ccc(Cc4nc5ccc(C(=O)O)cc5n4CC4CCO4)cc3F)n2)c(F)c1 (stereo not shown)
## Output -4.71

## Input Using known records, supply inhibition at 2.5 h, 10 µM for `COCCn1c(Cc2ccc(-c3cccc(OCc4ccc(Cl)cc4F)c3)cc2)nc2ccc(C(=O)O)cc21`
## Output -15.5
